# ASSAYED_SYSTEM: corticotropin releasing factor 1 receptor
# METHOD: cell-based or functional assay
Ends that are not written are not given here.
Catalogue of binders with associated CRF1R EC50
MEASURED_PARAMETER: CRF1R EC50 (µM)

BINDER	MEASURED_PARAMETER	QUANTITATIVE_READOUT
ZGPPISIDLPQALLRKMIEIEKQEKEKQQAANNRLLLDTI (not fully specified; C-terminal amide) [SEQ ID NO 302]	CRF1R EC50	0.366
DNPSLSIDLPLLLLRTLLELEKTQSQRERAEQNAHIFAHV-NH2 [SEQ ID NO 328]	CRF1R EC50	1
ZGPPISIDVPYYLLRKVIEIEKQEKEKQQAANNARLLARI (C-terminal amide) [SEQ ID NO 378]	CRF1R EC50	1
NDDPPISIDLPFFLLRNMIEMARIENEREQAGLNAKYLAEV-NH2 [SEQ ID NO 264]	CRF1R EC50	0.705
ZGPPISIDLPLHLLRKMIEIEKQEKEKQQAANNALLLDTI (C-terminal amide) [SEQ ID NO 240]	CRF1R EC50	0.915
ZGPPISIDLPFQLLRKMIEIEKQEKEKQQAANNALLLDTI (C-terminal amide) [SEQ ID NO 251]	CRF1R EC50	0.926
DNPSLSIDLPLFLLRTLLELEKTQSQRERAEQNARIFDRV-NH2 [SEQ ID NO 336]	CRF1R EC50	1
ZGPPISIDLPQILLRKVIEIEKQEKEKQQAANNARLLARI (C-terminal amide) [SEQ ID NO 294]	CRF1R EC50	1
ZGPPISIDLPYQLLRKVIEIEKQEKEKQQAANNRLLLDTI (C-terminal amide) [SEQ ID NO 283]	CRF1R EC50	0.635
NDDPPISIDLPTYLLRNMIEMARIENEREQAGLNAKYLAEV-NH2 [SEQ ID NO 266]	CRF1R EC50	1
DNPSLSIDLPLILLRTLLELEKTQSQRERAEQNARIFARV-NH2 [SEQ ID NO 335]	CRF1R EC50	1
IVLSLDVPIGLLQKVIEIEKQEKEKQQATTNARILARV-NH2 [SEQ ID NO 300]	CRF1R EC50	1

Each recorded value in this set is attributed to patent US20030148956A1.
